# Test system: 565232-114-T-J1-PDC complex spheroid viability
# assay notes: Anticancer human tumor 565232-114-T-J1-PDC patient-derived bladder carcinoma cell line growth inhibition [CLK]
# test parameters: second compound 3.16 µM; first compound 0.01 µM; stronger effect = lower value
// reported viability, T/C for each item listed
Give the value in % but do not write % after it.

Guide cases for viability, T/C, answers given:
>>> measurement("COc1c(OCCCN2CCOCC2)ccc2c3n(c(=NC(=O)c4cnc(N)nc4)nc12)CCN3 + CNC(=O)c1ccc(Nc2nc(OC3CCCC3)c3c(-c4ccc5nc(C)oc5c4)c[nH]c3n2)c(OC)c1")
9.18
>>> measurement("CCN1CCN(Cc2ccc(Nc3ncc(F)c(-c4cc(F)c5nc(C)n(C(C)C)c5c4)n3)nc2)CC1 + CN1CCN(c2cc(C(=O)Nc3cc4cc(-c5cnn(C)c5)ccc4cn3)ccn2)CC1")
0.22

QUERY: Request: viability, T/C, test system 565232-114-T-J1-PDC complex spheroid viability, entry Cn1ncnc1[C@H]1c2n[nH]c(=O)c3cc(F)cc(c23)N[C@@H]1c1ccc(F)cc1 + CNC(=O)c1ccc(Nc2nc(OC3CCCC3)c3c(-c4ccc5nc(C)oc5c4)c[nH]c3n2)c(OC)c1
RESULT: 16.4

QUERY: Request: viability, T/C, test system 565232-114-T-J1-PDC complex spheroid viability, entry CCc1c2c(nc3ccc(O)cc13)-c1cc3c(c(=O)n1C2)COC(=O)[C@]3(O)CC + CNC(=O)c1ccc(Nc2nc(OC3CCCC3)c3c(-c4ccc5nc(C)oc5c4)c[nH]c3n2)c(OC)c1
RESULT: 9.15

QUERY: Request: viability, T/C, test system 565232-114-T-J1-PDC complex spheroid viability, entry CCc1c2c(nc3ccc(O)cc13)-c1cc3c(c(=O)n1C2)COC(=O)[C@]3(O)CC + CN1CCN(c2cc(C(=O)Nc3cc4cc(-c5cnn(C)c5)ccc4cn3)ccn2)CC1
RESULT: 1

QUERY: Request: viability, T/C, test system 565232-114-T-J1-PDC complex spheroid viability, entry Cn1ncnc1[C@H]1c2n[nH]c(=O)c3cc(F)cc(c23)N[C@@H]1c1ccc(F)cc1 + CN1CCN(c2cc(C(=O)Nc3cc4cc(-c5cnn(C)c5)ccc4cn3)ccn2)CC1
RESULT: 0.14

QUERY: Request: viability, T/C, test system 565232-114-T-J1-PDC complex spheroid viability, entry CCN1CCN(Cc2ccc(Nc3ncc(F)c(-c4cc(F)c5nc(C)n(C(C)C)c5c4)n3)nc2)CC1 + CNC(=O)c1ccc(Nc2nc(OC3CCCC3)c3c(-c4ccc5nc(C)oc5c4)c[nH]c3n2)c(OC)c1
RESULT: 19

====

# Tested on: 565232-114-T-J1-PDC complex spheroid viability
# assay notes: Anticancer human tumor 565232-114-T-J1-PDC cell line growth inhibition [CLK];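 also: spheroids exposed to compounds for 7 days before readout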;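 as to viability, T/C: 100% = DMSO vehicle wells with luminescence normalized to vehicle control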
# test parameters: second compound 0.1 µM; first compound 1 µM; stronger effect = lower value
readout label: viability, T/C (%)
Give the value in % but do not write % after it.

>>> measurement("CC(CO)NC(=O)c1cc(-c2ccc(Cl)cc2)nn(-c2cnn(C)c2)c1=O (stereo not drawn) + CNC(=O)c1ccc(Nc2nc(OC3CCCC3)c3c(-c4ccc5nc(C)oc5c4)c[nH]c3n2)c(OC)c1")
47.1

QUERY: Using the record for COc1c(OCCCN2CCOCC2)ccc2c3n(c(=NC(=O)c4cnc(N)nc4)nc12)CCN3 + CNC(=O)c1ccc(Nc2nc(OC3CCCC3)c3c(-c4ccc5nc(C)oc5c4)c[nH]c3n2)c(OC)c1 , report its viability, T/C.
RESULT: 20.8

QUERY: Using the record for CC(CO)NC(=O)c1cc(-c2ccc(Cl)cc2)nn(-c2cnn(C)c2)c1=O (stereo not drawn) + CN1CCN(c2cc(C(=O)Nc3cc4cc(-c5cnn(C)c5)ccc4cn3)ccn2)CC1 , report its viability, T/C.
RESULT: 89.7

QUERY: Using the record for O=c1[nH]cc(F)c(=O)[nH]1 + CNC(=O)c1ccc(Nc2nc(OC3CCCC3)c3c(-c4ccc5nc(C)oc5c4)c[nH]c3n2)c(OC)c1 , report its viability, T/C.
RESULT: 48

QUERY: Using the record for C=C(F)C(=O)N1CCN(c2nc(OCC3CCCN3C)nc3c2CCN(c2cccc4cccc(Cl)c24)C3)CC1CC#N (stereo not drawn) + CNC(=O)c1ccc(Nc2nc(OC3CCCC3)c3c(-c4ccc5nc(C)oc5c4)c[nH]c3n2)c(OC)c1 , report its viability, T/C.
RESULT: 68.6

QUERY: Using the record for O=c1[nH]cc(F)c(=O)[nH]1 + CN1CCN(c2cc(C(=O)Nc3cc4cc(-c5cnn(C)c5)ccc4cn3)ccn2)CC1 , report its viability, T/C.
RESULT: 130

QUERY: Using the record for CC1(C)CCC(CN2CCN(c3ccc(C(=O)NS(=O)(=O)c4ccc(NCC5CCOCC5)c([N+](=O)[O-])c4)c(Oc4cnc5[nH]ccc5c4)c3)CC2)=C(c2ccc(Cl)cc2)C1 + CNC(=O)c1ccc(Nc2nc(OC3CCCC3)c3c(-c4ccc5nc(C)oc5c4)c[nH]c3n2)c(OC)c1 , report its viability, T/C.
RESULT: 53.6

QUERY: Using the record for C#Cc1c(F)ccc2cc(O)cc(-c3ncc4c(N5CC6CCC(C5)N6)nc(OCC56CCCN5CC(F)C6)nc4c3F)c12 (stereo not drawn) + CNC(=O)c1ccc(Nc2nc(OC3CCCC3)c3c(-c4ccc5nc(C)oc5c4)c[nH]c3n2)c(OC)c1 , report its viability, T/C.
RESULT: 53.2

====

# Tested on: 565232-114-T-J1-PDC complex spheroid viability
# assay notes: Anticancer human tumor 565232-114-T-J1-PDC cell line growth inhibition [CLK];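 also: spheroids exposed to compounds for 7 days before readout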;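 as to viability, T/C: 100% = DMSO vehicle wells with luminescence normalized to vehicle control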
# test parameters: second compound 10 µM; first compound 0.1 µM; stronger effect = lower value
Please use rule met for viability, T/C under 20% and rule not met for everything else, ties included.

Example entries begin here.
>>> label("CC1COCCN1c1cc(C2(S(C)(=N)=O)CC2)nc(-c2ccnc3[nH]ccc23)n1 (stereo not given) + CNC(=O)c1ccc(Nc2nc(OC3CCCC3)c3c(-c4ccc5nc(C)oc5c4)c[nH]c3n2)c(OC)c1")
"rule not met"
>>> label("CC1COCCN1c1cc(C2(S(C)(=N)=O)CC2)nc(-c2ccnc3[nH]ccc23)n1 (stereo not given) + CN1CCN(c2cc(C(=O)Nc3cc4cc(-c5cnn(C)c5)ccc4cn3)ccn2)CC1")
"rule met"
>>> label("CC1(C)CCC(CN2CCN(c3ccc(C(=O)NS(=O)(=O)c4ccc(NCC5CCOCC5)c([N+](=O)[O-])c4)c(Oc4cnc5[nH]ccc5c4)c3)CC2)=C(c2ccc(Cl)cc2)C1 + CN1CCN(c2cc(C(=O)Nc3cc4cc(-c5cnn(C)c5)ccc4cn3)ccn2)CC1")
"rule met"
>>> label("C#Cc1c(F)ccc2cc(O)cc(-c3ncc4c(N5CC6CCC(C5)N6)nc(OCC56CCCN5CC(F)C6)nc4c3F)c12 (stereo not given) + CN1CCN(c2cc(C(=O)Nc3cc4cc(-c5cnn(C)c5)ccc4cn3)ccn2)CC1")
"rule met"

As a next step, examine the compound that follows.
QUERY: Does this compound meet the criterion viability, T/C < 20%? COc1ccc([C@@H](O)c2cc(-c3ncnc4cc(N5CCOCC5)ccc34)c(F)cc2Cl)nn1 + CNC(=O)c1ccc(Nc2nc(OC3CCCC3)c3c(-c4ccc5nc(C)oc5c4)c[nH]c3n2)c(OC)c1
RESULT: rule met

====

// reported pIC50 for each item listed
# Test system: 565232-114-T-J1-PDC complex spheroid viability
# assay notes: Anticancer human tumor 565232-114-T-J1-PDC cell line growth inhibition [CLK];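 also: spheroids exposed to compounds for 7 days before readout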
# test parameters: curve of first compound; second compound 0.0316 µM
pIC50: −log10 of the molar value.

>>> measurement("O=c1[nH]cc(F)c(=O)[nH]1 + CNC(=O)c1ccc(Nc2nc(OC3CCCC3)c3c(-c4ccc5nc(C)oc5c4)c[nH]c3n2)c(OC)c1")
"< 5.00"
>>> measurement("COc1ccc([C@@H](O)c2cc(-c3ncnc4cc(N5CCOCC5)ccc34)c(F)cc2Cl)nn1 + CNC(=O)c1ccc(Nc2nc(OC3CCCC3)c3c(-c4ccc5nc(C)oc5c4)c[nH]c3n2)c(OC)c1")
"< 5.00"

QUERY: Using the record for CC(CO)NC(=O)c1cc(-c2ccc(Cl)cc2)nn(-c2cnn(C)c2)c1=O (stereo not drawn) + CNC(=O)c1ccc(Nc2nc(OC3CCCC3)c3c(-c4ccc5nc(C)oc5c4)c[nH]c3n2)c(OC)c1 , report its pIC50.
RESULT: < 5.00

====

# Test system: 565232-114-T-J1-PDC complex spheroid viability
# assay notes: Anticancer human tumor 565232-114-T-J1-PDC cell line growth inhibition [CLK];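 also: spheroids exposed to compounds for 7 days before readout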;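 as to viability, T/C: 100% = DMSO vehicle wells with luminescence normalized to vehicle control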
# test parameters: second compound 0.1 µM; first compound 3.16 µM; stronger effect = lower value
readout label: viability, T/C (%)
Give the value in % but do not write % after it.

Guide cases for viability, T/C, answers given:
>>> measurement("C#Cc1c(F)ccc2cc(O)cc(-c3ncc4c(N5CC6CCC(C5)N6)nc(OCC56CCCN5CC(F)C6)nc4c3F)c12 (configuration not stated) + CNC(=O)c1ccc(Nc2nc(OC3CCCC3)c3c(-c4ccc5nc(C)oc5c4)c[nH]c3n2)c(OC)c1")
51.5
>>> measurement("Nc1ccn(C2OC(CO)C(O)C2(F)F)c(=O)n1 (configuration not stated) + CN1CCN(c2cc(C(=O)Nc3cc4cc(-c5cnn(C)c5)ccc4cn3)ccn2)CC1")
30.2
>>> measurement("COc1ccc([C@@H](O)c2cc(-c3ncnc4cc(N5CCOCC5)ccc34)c(F)cc2Cl)nn1 + CNC(=O)c1ccc(Nc2nc(OC3CCCC3)c3c(-c4ccc5nc(C)oc5c4)c[nH]c3n2)c(OC)c1")
34.6
>>> measurement("Nc1ccccc1NC(=O)c1ccc(CNC(=O)OCc2cccnc2)cc1 + CN1CCN(c2cc(C(=O)Nc3cc4cc(-c5cnn(C)c5)ccc4cn3)ccn2)CC1")
42.9
>>> measurement("CC(CO)NC(=O)c1cc(-c2ccc(Cl)cc2)nn(-c2cnn(C)c2)c1=O (configuration not stated) + CNC(=O)c1ccc(Nc2nc(OC3CCCC3)c3c(-c4ccc5nc(C)oc5c4)c[nH]c3n2)c(OC)c1")
51

QUERY: Using the record for C#Cc1c(F)ccc2cc(O)cc(-c3ncc4c(N5CC6CCC(C5)N6)nc(OCC56CCCN5CC(F)C6)nc4c3F)c12 (configuration not stated) + CN1CCN(c2cc(C(=O)Nc3cc4cc(-c5cnn(C)c5)ccc4cn3)ccn2)CC1 , report its viability, T/C.
RESULT: 101

QUERY: Using the record for COc1cccc2c1C(=O)c1c(O)c3c(c(O)c1C2=O)CC(O)(C(=O)CO)CC3OC1CC(N)C(O)C(C)O1 (configuration not stated) + CN1CCN(c2cc(C(=O)Nc3cc4cc(-c5cnn(C)c5)ccc4cn3)ccn2)CC1 , report its viability, T/C.
RESULT: 0.19
